Form field: Residual enzyme activity DYRK 1A (one value per entry).
Target: DYRK1A (Homo sapiens)
Experiment: radiometric protein kinase assay
Format: biochemical
Conditions: 10 µM concentration; ± SEM
assay_metric: Residual enzyme activity DYRK 1A (%)

>  <compound>
CCc1c(-c2ccccc2)[nH]c2c3c(ccc12)CNC3=O [S18d]

>  <test_value>
74

$$$$
>  <compound>
Cc1[nH]c2c3c(ccc2c1C)CNC3=O [S18b]

>  <test_value>
82

$$$$
>  <compound>
Cc1[nH]c2c3c(ccc2c1C)C(=O)NC3=O

>  <test_value>
41

$$$$
>  <compound>
Cc1ccc(-c2[nH]c3c4c(ccc3c2C)CNC4=O)cc1 [S18e]

>  <test_value>
99

$$$$
>  <compound>
CCc1[nH]c2c3c(ccc2c1C)CNC3=O [S18a]

>  <test_value>
54

$$$$
>  <compound>
Cc1c(-c2ccccc2)[nH]c2c3c(ccc12)CNC3=O [S18c]

>  <test_value>
58

$$$$

====

Form field: Residual enzyme activity CDK2/cyclin A (one value per entry).
Target: CDK2/cyclin A (Homo sapiens)
Construct: made in house
Assay: radiometric protein kinase assay
Format: biochemical
Conditions: 10 µM concentration; ± SEM

>  <compound>
Cc1ccc(-c2[nH]c3c4c(ccc3c2C)CNC4=O)cc1 [S18e]

>  <Residual enzyme activity CDK2/cyclin A, %>
102

$$$$
>  <compound>
Cc1[nH]c2c3c(ccc2c1C)CNC3=O [S18b]

>  <Residual enzyme activity CDK2/cyclin A, %>
103

$$$$
>  <compound>
CCc1[nH]c2c3c(ccc2c1C)CNC3=O [S18a]

>  <Residual enzyme activity CDK2/cyclin A, %>
99

$$$$
>  <compound>
Cc1c(-c2ccccc2)[nH]c2c3c(ccc12)CNC3=O [S18c]

>  <Residual enzyme activity CDK2/cyclin A, %>
109

$$$$
>  <compound>
Cc1[nH]c2c3c(ccc2c1C)C(=O)NC3=O

>  <Residual enzyme activity CDK2/cyclin A, %>
108

$$$$
>  <compound>
CCc1c(-c2ccccc2)[nH]c2c3c(ccc12)CNC3=O [S18d]

>  <Residual enzyme activity CDK2/cyclin A, %>
104

$$$$

====

// each record: one item and its IC50 for DYRK3 (Homo sapiens, UniProt O43781)

>  <compound>
O=C1NCc2ccc3c(-c4cccc(Cl)c4)c[nH]c3c21

>  <IC50>
> 10 µM

$$$$
>  <compound>
O=C1NCc2c(-c3ccccc3)cc3c(-c4ccccc4)c[nH]c3c21 [17a]

>  <IC50>
> 10 µM

$$$$
>  <compound>
Cc1[nH]c2c3c(c(Br)cc2c1-c1ccccc1)CNC3=O [12b]

>  <IC50>
0.12 µM

$$$$

====

Molecular target: CDK9/cyclin T (Homo sapiens)
Assay: radiometric protein kinase assay
Conditions: 10 µM concentration; ± SEM
Form field: Residual enzyme activity CDK9/cyclin T (one value per entry).

>  <compound>
Cc1[nH]c2c3c(ccc2c1C)CNC3=O [S18b]

>  <units>
%

>  <Residual enzyme activity CDK9/cyclin T>
104

$$$$
>  <compound>
Cc1[nH]c2c3c(ccc2c1C)C(=O)NC3=O

>  <units>
%

>  <Residual enzyme activity CDK9/cyclin T>
90

$$$$
>  <compound>
Cc1c(-c2ccccc2)[nH]c2c3c(ccc12)CNC3=O [S18c]

>  <units>
%

>  <Residual enzyme activity CDK9/cyclin T>
89

$$$$
>  <compound>
CCc1[nH]c2c3c(ccc2c1C)CNC3=O [S18a]

>  <units>
%

>  <Residual enzyme activity CDK9/cyclin T>
93

$$$$
>  <compound>
Cc1ccc(-c2[nH]c3c4c(ccc3c2C)CNC4=O)cc1 [S18e]

>  <units>
%

>  <Residual enzyme activity CDK9/cyclin T>
101

$$$$
>  <compound>
CCc1c(-c2ccccc2)[nH]c2c3c(ccc12)CNC3=O [S18d]

>  <units>
%

>  <Residual enzyme activity CDK9/cyclin T>
100

$$$$

====

System: GSK-3
Assay: radiometric protein kinase assay
Assay type: biochemical, porcine
Details: 10 µM concentration; ± SEM

>  <compound>
O=C1NCc2ccc3c(-c4ccccc4)c[nH]c3c21

>  <Residual enzyme activity GSK3 [%]>
111

$$$$
>  <compound>
Cc1[nH]c2c3c(ccc2c1C)C(=O)NC3=O

>  <Residual enzyme activity GSK3 [%]>
51

$$$$
>  <compound>
Cc1[nH]c2c3c(ccc2c1C)CNC3=O [S18b]

>  <Residual enzyme activity GSK3 [%]>
135

$$$$
>  <compound>
Cc1ccc(-c2[nH]c3c4c(ccc3c2C)CNC4=O)cc1 [S18e]

>  <Residual enzyme activity GSK3 [%]>
120

$$$$
>  <compound>
Cc1c(-c2ccccc2)[nH]c2c3c(ccc12)CNC3=O [S18c]

>  <Residual enzyme activity GSK3 [%]>
112

$$$$
>  <compound>
CCc1c(-c2ccccc2)[nH]c2c3c(ccc12)CNC3=O [S18d]

>  <Residual enzyme activity GSK3 [%]>
111

$$$$
>  <compound>
CCc1[nH]c2c3c(ccc2c1C)CNC3=O [S18a]

>  <Residual enzyme activity GSK3 [%]>
97

$$$$

====

Form field: IC50 (one value per entry).
Target: CDK9/cyclin T (Homo sapiens, UniProt P50750)
Sequence (P50750 whole entry): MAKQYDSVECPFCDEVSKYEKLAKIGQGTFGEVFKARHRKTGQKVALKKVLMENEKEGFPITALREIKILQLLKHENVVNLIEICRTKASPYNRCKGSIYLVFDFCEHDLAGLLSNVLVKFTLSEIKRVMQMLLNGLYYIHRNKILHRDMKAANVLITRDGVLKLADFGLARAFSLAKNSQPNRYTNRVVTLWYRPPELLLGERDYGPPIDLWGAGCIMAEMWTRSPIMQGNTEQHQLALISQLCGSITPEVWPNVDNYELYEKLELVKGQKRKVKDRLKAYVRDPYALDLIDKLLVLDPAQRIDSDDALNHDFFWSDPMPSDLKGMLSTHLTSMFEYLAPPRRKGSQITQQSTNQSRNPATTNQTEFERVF
Sequence (O60563 whole entry partner): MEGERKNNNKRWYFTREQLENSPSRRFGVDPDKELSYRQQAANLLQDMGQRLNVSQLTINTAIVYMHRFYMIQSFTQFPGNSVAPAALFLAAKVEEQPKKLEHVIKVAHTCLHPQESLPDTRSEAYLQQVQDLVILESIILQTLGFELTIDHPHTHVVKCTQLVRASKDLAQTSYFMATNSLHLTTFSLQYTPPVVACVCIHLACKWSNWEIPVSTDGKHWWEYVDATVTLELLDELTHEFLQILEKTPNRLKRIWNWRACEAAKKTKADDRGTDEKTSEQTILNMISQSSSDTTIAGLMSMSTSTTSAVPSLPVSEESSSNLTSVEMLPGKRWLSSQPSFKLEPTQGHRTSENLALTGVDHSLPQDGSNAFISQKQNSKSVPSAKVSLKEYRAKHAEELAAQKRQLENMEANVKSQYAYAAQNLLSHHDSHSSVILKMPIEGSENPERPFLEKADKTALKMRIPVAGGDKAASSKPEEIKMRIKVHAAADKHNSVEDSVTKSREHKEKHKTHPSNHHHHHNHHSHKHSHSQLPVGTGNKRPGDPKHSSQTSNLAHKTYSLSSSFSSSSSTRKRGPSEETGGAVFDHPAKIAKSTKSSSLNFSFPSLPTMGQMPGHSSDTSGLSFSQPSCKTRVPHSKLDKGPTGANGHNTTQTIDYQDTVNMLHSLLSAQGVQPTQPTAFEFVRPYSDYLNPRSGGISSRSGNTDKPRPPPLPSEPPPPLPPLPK
Experiment: radiometric protein kinase assay

>  <compound>
O=C1NCc2c(-c3ccccc3)cc3c(-c4ccccc4)c[nH]c3c21 [17a]

>  <IC50>
> 10 µM

$$$$
>  <compound>
NC(=O)Cn1cc(-c2ccccc2)c2ccc3c(c21)C(=O)NC3 [15c]

>  <IC50>
> 10 µM

$$$$
>  <compound>
O=C1NCc2ccc3c(-c4cccc(O)c4)c[nH]c3c21

>  <IC50>
1.1 µM

$$$$
>  <compound>
O=C1NCc2ccc3c(-c4ccccc4Cl)c[nH]c3c21

>  <IC50>
> 10 µM

$$$$
>  <compound>
Cc1[nH]c2c3c(c(Br)cc2c1-c1ccccc1)CNC3=O [12b]

>  <IC50>
> 10 µM

$$$$
>  <compound>
Cc1cccc(-c2c[nH]c3c4c(ccc23)CNC4=O)c1

>  <IC50>
> 10 µM

$$$$
>  <compound>
Cc1[nH]c2c3c(ccc2c1-c1ccccc1)CNC3=O

>  <IC50>
> 10 µM

$$$$
>  <compound>
COc1cccc(-c2c[nH]c3c4c(ccc23)CNC4=O)c1

>  <IC50>
> 10 µM

$$$$
>  <compound>
O=C1NCc2ccc3c(-c4ccccc4)c(Br)[nH]c3c21

>  <IC50>
> 10 µM

$$$$
>  <compound>
O=C1NCc2ccc3c(-c4cccc(Cl)c4)c[nH]c3c21

>  <IC50>
> 10 µM

$$$$
>  <compound>
O=C1NCc2ccc3c(-c4ccccc4)c[nH]c3c21

>  <IC50>
> 10 µM

$$$$
>  <compound>
O=C1NCc2ccc3c(-c4cccc([N+](=O)[O-])c4)c[nH]c3c21

>  <IC50>
> 10 µM

$$$$
>  <compound>
CCc1[nH]c2c3c(ccc2c1-c1ccccc1)CNC3=O

>  <IC50>
> 10 µM

$$$$
>  <compound>
O=C1NCc2c(Cl)cc3c(-c4ccccc4)c[nH]c3c21 [12c]

>  <IC50>
> 10 µM

$$$$
>  <compound>
O=C1NCc2ccc3c(-c4ccc(Cl)c(Cl)c4)c[nH]c3c21

>  <IC50>
> 10 µM

$$$$
>  <compound>
O=C1NCc2ccc3c(-c4ccc(Cl)cc4)c[nH]c3c21

>  <IC50>
> 10 µM

$$$$
>  <compound>
CCOC(=O)Cn1cc(-c2ccccc2)c2ccc3c(c21)C(=O)NC3 [15d]

>  <IC50>
> 10 µM

$$$$
>  <compound>
CCn1cc(-c2ccccc2)c2ccc3c(c21)C(=O)NC3 [15b]

>  <IC50>
> 10 µM

$$$$
>  <compound>
CN1Cc2ccc3c(-c4ccccc4)cn(C)c3c2C1=O [15e]

>  <IC50>
> 10 µM

$$$$
>  <compound>
Cn1cc(-c2ccccc2)c2ccc3c(c21)C(=O)NC3 [15a]

>  <IC50>
> 10 µM

$$$$
>  <compound>
CN1Cc2ccc3c(-c4ccccc4)c[nH]c3c2C1=O [12d]

>  <IC50>
> 10 µM

$$$$
>  <compound>
CC(=O)Oc1cccc(-c2c[nH]c3c4c(ccc23)CNC4=O)c1

>  <IC50>
> 10 µM

$$$$
>  <compound>
O=C1NCc2c(Br)cc3c(-c4ccccc4)c[nH]c3c21 [12a]

>  <IC50>
> 10 µM

$$$$
>  <compound>
O=C1NCc2c(-c3ccccc3F)cc3c(-c4ccccc4)c[nH]c3c21 [17b]

>  <IC50>
> 10 µM

$$$$
>  <compound>
O=C1NCc2c(-c3cccc(F)c3)cc3c(-c4ccccc4)c[nH]c3c21 [17c]

>  <IC50>
> 10 µM

$$$$
